study.target: Pa oa1 (Periplaneta americana, UniProt Q7YWB7)
Sequence (Q7YWB7 entry or part of it): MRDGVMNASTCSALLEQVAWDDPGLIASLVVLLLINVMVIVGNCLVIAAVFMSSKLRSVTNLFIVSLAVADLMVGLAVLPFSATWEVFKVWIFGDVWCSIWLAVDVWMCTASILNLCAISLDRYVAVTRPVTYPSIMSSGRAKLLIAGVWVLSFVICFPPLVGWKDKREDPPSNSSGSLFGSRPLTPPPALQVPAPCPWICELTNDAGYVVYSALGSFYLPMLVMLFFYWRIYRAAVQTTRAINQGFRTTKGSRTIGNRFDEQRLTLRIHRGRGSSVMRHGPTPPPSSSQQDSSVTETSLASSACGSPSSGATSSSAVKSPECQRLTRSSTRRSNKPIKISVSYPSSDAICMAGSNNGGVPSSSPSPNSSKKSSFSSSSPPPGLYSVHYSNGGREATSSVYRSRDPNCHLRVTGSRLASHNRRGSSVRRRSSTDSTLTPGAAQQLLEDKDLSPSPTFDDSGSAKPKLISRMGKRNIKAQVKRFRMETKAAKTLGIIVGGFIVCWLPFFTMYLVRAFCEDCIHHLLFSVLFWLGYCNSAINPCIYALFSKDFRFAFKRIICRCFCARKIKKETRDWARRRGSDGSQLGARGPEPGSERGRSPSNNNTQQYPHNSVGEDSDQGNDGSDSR
assay.remarks: cAMP levels in HEK-293 cells expressing Pa oa1
recorded.conditions: 300 μM IBMX; read-out: EC50 for increase in cAMP
Hi there, I'd appreciate the recorded EC50 for every entry that follows.

Inquiry: Quick one: give measured EC50 for NCC(O)c1ccc(O)cc1 (racemic)
Reply text: ~1.62 µM

Inquiry: Quick one: give measured EC50 for `NCCc1ccc(O)cc1`
Reply text: ~97.7 µM

* * *

Hi there, I'd appreciate the recorded Ki for every entry that follows.
study.target: Pa oa1 (Periplaneta americana)
assay.remarks: Competitive binding against 3H-yohimbine, Pa oa1 membranes
recorded.conditions: Ki, about 2 nM 3H-yohimbine
Include the unit after the number when you answer.

Inquiry: Quick one: give measured Ki for `CN(C)CCCN1c2ccccc2Sc2ccc(Cl)cc21`
Reply text: 0.012 µM

Inquiry: Quick one: give measured Ki for `NCCc1ccc(O)c(O)c1`
Reply text: 56.6 µM

Inquiry: Quick one: give measured Ki for `CCN(CC)CCNC(=O)c1cc(Cl)c(N)cc1OC`
Reply text: 4.76 µM

Inquiry: Quick one: give measured Ki for `NCCc1c[nH]c2ccc(O)cc12`
Reply text: 77.4 µM

Inquiry: Quick one: give measured Ki for `Cc1ccc(N(CC2=NCCN2)c2cccc(O)c2)cc1`
Reply text: 0.023 µM
